Test system: SNB-19 CNS
experimentSummary: NCI-60 one-dose screen, 48 h (100 = growth as untreated, 0 = no growth, -100 = all killed)
measurementParameters: 10 µM unless noted
This is part of a sample that, as a whole, favours compounds with a hit. Of some 83,000 tested, about 20% had one in any assay.
// NB: equality with 70% counts as no (0); only growth strictly below is yes (1)

[Q] Record Cc1nc(-c2cc3ccccc3oc2=O)ccc1C(=O)/C=C/c1ccc(Cl)c(Cl)c1 : is its growth strictly below 70%?
[A] no (0)

[Q] Record CN(C)c1ccc(/C=C2\Cc3c(F)ccc(Br)c3C2=O)cc1 : is its growth strictly below 70%?
[A] no (0)

[Q] Record C/C(=N/NC(N)=S)c1ccc(Nc2nc(SCC(C)C)nc(-c3ccc(F)cc3)c2C#N)cc1 : is its growth strictly below 70%?
[A] yes (1)

[Q] Record COc1cc(OC)c(S(=O)(=O)NNC(=O)c2ccncc2)cc1C(=O)/C=C/c1ccc(C)cc1 : is its growth strictly below 70%?
[A] yes (1)

[Q] Record CC(=O)Nc1cc(F)cc(-c2ccc3[nH]cc(-c4ccccc4)c3n2)c1 : is its growth strictly below 70%?
[A] yes (1)

[Q] Record COc1ccc(COc2ccc(/C=C3/C(=O)Nc4cc(Cl)ccc43)cc2)cc1 : is its growth strictly below 70%?
[A] no (0)

[Q] Record Cc1ccccc1NC(=O)/C=C/c1ccc(OCCOc2ccc3c(C)cc(=O)oc3c2)cc1 : is its growth strictly below 70%?
[A] no (0)

[Q] Record O=C(N/N=C/c1ccc([N+](=O)[O-])o1)c1[nH]c2ccc(Br)cc2c1-c1ccccc1 : is its growth strictly below 70%?
[A] yes (1)

[Q] Record Cn1cc(-c2cc(N)n3nc(-c4cn(C)c5ccc(Br)cc45)cc3n2)c2cc(Br)ccc21 : is its growth strictly below 70%?
[A] no (0)

[Q] Record CC(C)(C)OC(=O)N1C(=O)c2c(c3c4ccccc4[nH]c3c3ccc4ccccc4c23)C1=O : is its growth strictly below 70%?
[A] no (0)

[Q] Record CSCCC(C(=O)O)N1C(=O)/C(=C/c2ccc(O)c(O)c2)SC1=S (configuration not stated) : is its growth strictly below 70%?
[A] no (0)

[Q] Record Clc1ccc(-c2cn3cc(Cc4ccc(Cl)c(Cl)c4)sc3n2)cc1 : is its growth strictly below 70%?
[A] no (0)

[Q] Record COc1cccc(-c2nn(-c3ccccc3)cc2-c2ccnc(N3CCN(C(=O)Nc4ccc(F)cc4)CC3)c2)c1 : is its growth strictly below 70%?
[A] yes (1)

[Q] Record Cn1c(SCC(=O)Nc2ccc(-c3nc4ccc([N+](=O)[O-])cc4[nH]3)cc2)nc2ccccc2c1=O : is its growth strictly below 70%?
[A] no (0)

[Q] Record O=C(CSc1nc2sc3c(c2c(=O)n1-c1ccc(Cl)cc1)CCCC3)NNC(=O)Nc1ccc(Cl)c(C(F)(F)F)c1 : is its growth strictly below 70%?
[A] yes (1)

[Q] Record COc1cc2nc(-c3ccc(C(F)(F)F)cc3)cc(OCCCNCC3CCCO3)c2cc1OC (configuration not stated) : is its growth strictly below 70%?
[A] no (0)
